# reported Potency; entries follow
# assay.notes: P-glycoprotein substrates identified in KB-8-5-11 adenocarcinoma cell line, qHTS therapeutic library screen (AID 1346987); further: potency means the concentration at half of the fitted maximal effect; nearly all actives have a fitted effect of over 65% in size
# stated.conditions: KB-8-5-11 (P-gp overexpressing) viability, CellTiter-Glo, 72 h; series mostly up to 44.5 µM
Results filed as inconclusive are left out. Calls of active or inactive are those of the source. The call rests on the fitted dose curve; in most records, active means well fitted inhibition curve with a large enough effect; inconclusive means small, poorly fitted or top-dose-only effect; inactive means flat fitted curve, though single readings scatter.
property.measured: Potency

[[record]]
compound = "CCc1nc(C(N)=O)c(Nc2ccc(N3CCC(N4CCN(C)CC4)CC3)c(OC)c2)nc1NC1CCOCC1"
result = "5.7 µM (active)"

[[record]]
compound = "Cc1ccc(C(=O)Nc2ccc(Oc3cc4cnn(C)c4cc3-c3cn[nH]c3)c(F)c2)c(=O)n1-c1ccc(F)cc1"
result = "4.61 µM (active)"

[[record]]
compound = "CON(C)C(=O)N1N=C(c2cc(F)ccc2F)S[C@@]1(CCCN)c1ccccc1"
result = "0.164 µM (active)"

[[record]]
compound = "Cc1nc2c(-c3cnc(N)nc3)nc(N3CCOCC3)nc2n1C(C)C"
result = "0.259 µM (active)"

[[record]]
compound = "C#C[C@]1(O)CC[C@H]2[C@@H]3CCC4=C/C(=N/O)CC[C@@H]4[C@H]3CC[C@@]21CC"
result = "5.8 µM (active)"

[[record]]
compound = "CCc1ccc2c(c1)N(CC(C)CN(C)C)c1ccccc1S2 (centres undefined)"
result = "25.9 µM (active)"

[[record]]
compound = "O=C(Nc1cccc(C(F)(F)F)c1)c1cc(Br)cc(Br)c1O"
result = "1.3 µM (active)"

[[record]]
compound = "Cc1cc(Nc2ncc(Cl)c(Nc3ccccc3S(=O)(=O)C(C)C)n2)c(OC(C)C)cc1C1CCNCC1"
result = "6.51 µM (active)"

[[record]]
compound = "COc1cc(N2CCC(O)CC2)ccc1Nc1cc(Nc2ccccc2S(=O)(=O)C(C)C)c2cc[nH]c2n1"
result = "11.4 µM (active)"

[[record]]
compound = "CN(C)C/C=C/C(=O)Nc1ccc(C(=O)Nc2cccc(Nc3ncc(Cl)c(-c4c[nH]c5ccccc45)n3)c2)cc1"
result = "5.17 µM (active)"

[[record]]
compound = "C[C@]12O[C@H](C[C@]1(O)CO)n1c3ccccc3c3c4c(c5c6ccccc6n2c5c31)CNC4=O"
result = "4.61 µM (active)"

[[record]]
compound = "COC(=O)[C@H]1[C@H]2C[C@@H]3c4[nH]c5ccccc5c4CCN3C[C@H]2C[C@@H](OC(=O)c2cc(OC)c(OC)c(OC)c2)[C@@H]1OC"
result = "4.11 µM (active)"

[[record]]
compound = "C[C@@H]1CCC2[C@@H](C)[C@@H](O)O[C@@H]3O[C@@]4(C)CC[C@@H]1[C@@]23OO4 (some centres undefined)"
result = "10.3 µM (active)"

[[record]]
compound = "CC[C@@]1(O)C(=O)OCc2c1cc1n(c2=O)Cc2cc3c([N+](=O)[O-])cccc3nc2-1"
result = "16.4 µM (active)"


Sourced from PubChem BioAssay (NCATS)
